- System: SK-MEL-28
- assay.comment: NCI tumour cell line growth inhibition, 48 h
The source made the active and inactive calls. Cut-off read from the data, not from the text of the source: active = GI50 up to about 1.1 µM and inactive = higher.

molecule	GI50
O=C(O)CSC(NC(=O)C(C(F)(F)F)C(F)(F)F)(C(F)(F)F)C(F)(F)F	> 100 µM (inactive)
COc1cc2c(cc1OC)C(CC1=C(c3ccccc3)CN3CCc4cc(OC)c(OC)cc4C3C1)NCC2 (stereo not given)	14.5 µM (inactive)
COc1cc([C@@H]2c3cc4c(cc3[C@@H](NCc3ccc(C#N)cc3)C3COC(=O)[C@@H]32)OCO4)cc(OC)c1O (stereo not given in full)	2.33 µM (inactive)
Cc1cnc2ccc(C)c([N+](=O)[O-])c2c1NCCCN(C)C	> 100 µM (inactive)
N/N=C(\N)Nc1cccc2ccccc12	> 100 µM (inactive)

====

- System: M19-MEL
- assay.comment: NCI tumour cell line growth inhibition, 48 h
Active and inactive are the calls of the source. Rule as the data show it: active = GI50 up to about 1.1 µM and inactive = higher.
Measured GI50 of individual entries
assay.readout: GI50

molecule	reported.measurement
Cc1c(Cl)ccc2c1NC(=O)C2(O)CC(=O)c1ccc(Cl)cc1 (stereo not given)	6.62 µM (inactive)
CC(=O)Nc1ccc(/C=C/C(=O)c2sc(-n3nc(-c4ccccc4)cc3-c3ccccc3)nc2C)cc1	> 10 µM (inactive)
CCCCCCc1cc(C(=O)Nc2cccc(C(F)(F)F)c2)nc(N)n1	> 100 µM (inactive)
CC(C)=CC(C(O)c1ccccc1)S(=O)(=O)c1nccn1C (stereo not given)	> 100 µM (inactive)
Cc1cccc(C)c1N1C(=O)C(=O)C(c2nc3ccccc3s2)/C(=N/c2cccc3c(=O)[nH][nH]c(=O)c23)C1=O (stereo not given)	> 100 µM (inactive)

====

- Tested on: SK-MEL-5
- assay.comment: NCI tumour cell line growth inhibition, 48 h
The source made the active and inactive calls. No stated cut-off is given here; in the data, active = GI50 up to about 1.1 µM and inactive = higher.

molecule	target.or.system	GI50
Cc1cnc2c(c1)C(=O)C1=C(C2=O)C2OC(=O)CC2OC1(C)C (stereo not drawn)	SK-MEL-5	0.317 µM (active)
COc1cc(/C=C2\CCc3cc(OC)c(OC)cc3C2=O)cc(OC)c1	SK-MEL-5	3.87 µM (inactive)
CCOC(=O)/C(C#N)=C/c1[nH]c(C)c(C)c1C	SK-MEL-5	> 100 µM (inactive)
C[C@@H](O)C(=O)N1[C@@H]2CC3CC[C@]2(CS1(=O)=O)C3(C)C	SK-MEL-5	49.2 µM (inactive)
OCC1CC2C=CCC(C2)C1 (stereo not drawn)	SK-MEL-5	> 100 µM (inactive)
CC(=O)Oc1ccc2c3c1O[C@H]1[C@H](O)CC[C@@]4(O)[C@@H](C2)N(C)CC[C@]314	SK-MEL-5	> 100 µM (inactive)
O=c1[nH]n(Cc2ccccc2CCl)c2ccc([N+](=O)[O-])cc12	SK-MEL-5	13.4 µM (inactive)
O=P(Nc1ccc(Cl)cc1)(Oc1ccccc1)N(CCCl)CCCl (stereo not drawn)	SK-MEL-5	> 100 µM (inactive)
COC(=O)CN(CC1O[C@@H]2OC(C)(C)O[C@@H]2C1N=[N+]=[N-])C(=O)OCc1ccccc1 (stereo partly drawn)	SK-MEL-5	> 100 µM (inactive)
C[C@]12CCC[C@H](Cl)C1(O)C[C@H](C(=O)O)CC2 (stereo partly drawn)	SK-MEL-5	> 100 µM (inactive)
COC/C=C\COC	SK-MEL-5	> 100 µM (inactive)
COc1cc(CC(C(=O)O)C(=O)O)c(OC)cc1CC(C(=O)O)C(=O)O	SK-MEL-5	> 100 µM (inactive)
COc1ccc(Oc2cnn(C(Br)(Br)C(C)=O)c(=O)c2Br)cc1	SK-MEL-5	16 µM (inactive)
Cn1c(=O)c2nc(CSCc3ccccc3)[nH]c2n(C)c1=O	SK-MEL-5	71.6 µM (inactive)
Cc1cccc2c1c(=O)c1c(O)cc(O)cc1n2C	SK-MEL-5	34.2 µM (inactive)
CN(Cc1ccccc1)C(=S)S [SODIUM BENZYL(METHYL)CARBAMODITHIOATE]	SK-MEL-5	48.3 µM (inactive)
Oc1cc(-c2cccs2)nc2cc3c(cc12)OCO3	SK-MEL-5	1.75 µM (inactive)
Nc1ccc(N)c2c1C(=O)c1c(N)ccc(N)c1C2=O	SK-MEL-5	37.8 µM (inactive)
O=C1NC(=O)C23C(=O)NC(=O)C12C1C=CC3CC1 (stereo not drawn)	SK-MEL-5	> 10 µM (inactive)
CC(C)(C)OC(=O)/C=C/C(=O)O/C=C/[N+](=O)[O-]	SK-MEL-5	> 100 µM (inactive)
CCOC(=O)C1CCCCc2sc(N)c(C#N)c21 (stereo not drawn)	SK-MEL-5	> 100 µM (inactive)
Cc1cc(C)nc(NC(P(=O)(O)O)P(=O)(O)O)n1	SK-MEL-5	> 100 µM (inactive)
COc1ccc(NC(=S)N/N=C(\c2ccccc2)c2ccccn2)cc1	SK-MEL-5	0.0432 µM (active)
